biological target: T1, Cynomolgus monkey LRP-8 expressed on HEK293 cells (cynomolgus monkey); experiment: cell-based ECL-MSD, 10 ug/ml Ab, cyno-LRP-8-HEK293
T1 construct: whole, on cells; also called cyno LRP-8; cLRP-8
fold over mIgG control overview
Numbers only here, please. The scale is fold.

{"binder": "anti-LRP-8 antibody ab58216 (mFc) (antibody, V domains shown, Mouse Fc form) VH: EVHLQQSGPEVVKPGASVKISCKASGYIISGYFLNWVKQSHGKSLEWVGRINPYSGDTFFNQKFKGKATLTVDKSSNTAHMELRSLTSEDSAVFYCAREDIGRFAYWGQGTLVTVSA VL: DVLMTQTPLSLPVSLGDQASISCRSSQTIVHSNGNTYLEWYLQKPGQSPKLLIYKVSNRFSGVPDRFSGSGSGTDFTLKISRVEAEDLGVYYCFQGSHAPPTFGGGTKLEIK", "fold over mIgG control, fold": 1.2}
{"binder": "anti-LRP-8 ML201-2B4.2B1.2H10 murine antibody (muFc) (antibody, V domains shown, Mouse Fc form; also called ML201-2B4.2B1.2H10 muFc; CL-33867) VH: DVKLVASGGGLVKPGGSLKLSCAASGFTLSRYAMSWVRQTPEKRLEWVAYIRNGGDYIYYADTVKGRFTISRDNARNTLYLQMSSLKSEDTAMYYCTREGSYYNFDYWGQGTTLTVSS VL: DVLMTQTPLSLPVSLGDQASISCRSSQSIVHSNGNTYLEWYLQKPGQSPNLLIFKVSNRFSGVPDRFIGSGSGTDFTLKISRVEAEDLGVYYCFQGSHVPWTFGGGTKLEIK", "fold over mIgG control, fold": 2.8}

Kindly consider the entry below.
Input line: Report fold over mIgG control for anti-LRP-8 ML199-11H1.5B2 murine antibody (muFc) (antibody, V domains shown, Mouse Fc form (muFc); also called ML199-11H1-5B2 muFc; anti-LRP-8,11H1.5B2) VH: EVQLVESGGDLVKPGGSLKLSCAASRFTFSNYGMSWVRQTPDKRLEWVATISSGGRYTYYPDSVKGRFTISRDNAKNTLYLQMSSLRSEDTAMYYCARDYLYAMDYWGQGTSVTVSS VL: DVVMTQTPLSLPVSLGDQASISCRSSQSLVYSNGNTYLHWYLQKPGQSPKVLMYKVSNRFSGVSDRFSGSGSGTDFTLKISRVEAEDLGVYFCSQSTHVPLTFGAGTKLELK please.
Output line: 7
